# target: soluble form of human recombinant TLR2 (extracellular domain Glu 21-Leu 590) (human, UniProt O60603 21-590)
# Sequence (O60603 21-590): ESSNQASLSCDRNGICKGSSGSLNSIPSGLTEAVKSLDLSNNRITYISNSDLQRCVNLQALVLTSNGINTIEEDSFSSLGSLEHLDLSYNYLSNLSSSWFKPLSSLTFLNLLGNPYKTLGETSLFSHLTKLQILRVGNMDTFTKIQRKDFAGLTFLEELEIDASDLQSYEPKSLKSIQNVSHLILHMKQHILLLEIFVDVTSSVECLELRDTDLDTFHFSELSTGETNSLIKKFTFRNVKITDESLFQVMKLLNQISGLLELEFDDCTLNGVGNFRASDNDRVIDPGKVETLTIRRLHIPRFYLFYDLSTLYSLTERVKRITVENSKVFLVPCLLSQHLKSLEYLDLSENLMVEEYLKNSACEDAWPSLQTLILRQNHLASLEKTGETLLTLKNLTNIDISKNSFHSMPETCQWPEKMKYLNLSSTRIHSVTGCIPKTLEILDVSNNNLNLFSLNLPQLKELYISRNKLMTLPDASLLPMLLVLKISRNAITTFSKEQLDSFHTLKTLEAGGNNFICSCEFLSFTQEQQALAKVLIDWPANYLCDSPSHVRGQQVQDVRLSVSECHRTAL
No end group written: not given here. Pam2 = lipid part of the lipopeptide Pam2CSK4
value.type: pKd
Please report pKd as the negative decimal logarithm of the molar concentration, giving only the number.

# input Which pKd reading was recorded for the binder C(Pam2)SKKKK [Pam2CSK4 lipopeptide] ?
# output 5.27

Reference source: paper PMC2413007
